This collection of values is drawn from ChEMBL document CHEMBL1765052.

Each entry below carries its reported inhibition at 50 µM.
molecular target: Solute carrier family 22 member 12 (Homo sapiens, UniProt Q96S37); assay: Inhibition of human URAT1 expressed in xenopus oocyte assessed as inhibition of [14C]-labelled urate uptake at 50 uM after 60 mins by liquid scintillation counting; conditions: 1 h
Endpoint label: inhibition at 50 µM (%)

                               smiles_string  observed
 0   CCc1oc2ccccc2c1C(=O)c1cc(Br)c(O)c(Br)c1      99.9
 1  CCc1oc2cc(Br)c(O)c(Br)c2c1C(=O)c1ccc(OC)cc1      76.5
 2        CCc1oc2ccc(O)cc2c1C(=O)c1ccc(O)cc1      96.5
 3     CCc1cc2c(C(=O)c3ccc(OC)cc3)c(O)ccc2o1      28.7
 4  CCc1cc2c(C(=O)c3cc(Br)c(O)c(Br)c3)cc(Br)c(O)c2o1      99.9
 5     CCc1cc2c(C(=O)c3ccc(O)cc3)cc(OC)cc2o1      62.4
 6      CCc1oc2c(OC)cccc2c1C(=O)c1ccc(OC)cc1      17.2
 7        CCc1oc2cc(O)ccc2c1C(=O)c1ccc(O)cc1      92.1
 8  CCc1oc2ccc(OC)cc2c1C(=O)c1cc(Br)c(O)c(Br)c1      99.9
 9     CCc1cc2c(C(=O)c3ccc(O)cc3)c(OC)ccc2o1      88.2
10  CCc1oc2c(Br)c(O)c(Br)cc2c1C(=O)c1ccc(OC)cc1      99.8

====

Target: Solute carrier family 22 member 12 (Homo sapiens, UniProt Q96S37)
Sequence (Q96S37 whole entry): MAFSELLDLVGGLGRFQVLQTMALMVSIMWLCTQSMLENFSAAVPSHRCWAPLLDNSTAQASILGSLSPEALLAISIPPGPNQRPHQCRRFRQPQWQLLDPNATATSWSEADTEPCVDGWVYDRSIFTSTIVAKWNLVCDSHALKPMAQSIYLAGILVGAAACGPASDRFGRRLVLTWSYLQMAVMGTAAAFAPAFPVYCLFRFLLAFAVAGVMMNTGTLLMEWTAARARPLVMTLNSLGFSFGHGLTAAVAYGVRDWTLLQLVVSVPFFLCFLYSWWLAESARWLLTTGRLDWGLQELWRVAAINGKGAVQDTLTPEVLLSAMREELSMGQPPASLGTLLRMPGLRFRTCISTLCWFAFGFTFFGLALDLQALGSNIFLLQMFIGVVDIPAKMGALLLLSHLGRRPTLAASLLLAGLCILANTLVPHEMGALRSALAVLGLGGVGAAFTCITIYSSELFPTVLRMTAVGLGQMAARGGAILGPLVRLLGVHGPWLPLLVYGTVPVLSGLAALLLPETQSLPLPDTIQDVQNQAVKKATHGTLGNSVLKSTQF
Assay: Inhibition of human URAT1 expressed in xenopus oocyte assessed as inhibition of [14C]-labelled urate uptake after 60 mins by liquid scintillation counting
Each entry below carries its reported log10(IC50).
Endpoint label: log10(IC50) (log10 of the value in µM)

In [3]: df
Out[3]:
                              smiles_string  observed
0  CCc1cc2c(C(=O)c3cc(Br)c(O)c(Br)c3)c(O)ccc2o1     -1.08
1  CCc1cc2c(C(=O)c3cc(Br)c(O)c(Br)c3)c(OC)ccc2o1     -0.45
2  CCc1oc2c(Br)c(O)c(Br)cc2c1C(=O)c1ccc(OC)cc1     -0.18
3  CCc1oc2ccc(O)cc2c1C(=O)c1cc(Br)c(O)c(Br)c1     -0.72
4  CCc1cc2c(C(=O)c3ccc(OC)cc3)cc(Br)c(O)c2o1     -0.11
5      CCc1cc2c(C(=O)c3ccc(O)cc3)ccc(O)c2o1      0.60
